Target: F508delCFTR (Homo sapiens, UniProt P13569, DEL508-508)
Construct: expressed in transfected cells; host or cells: CFBE41o- human lung-derived epithelial cells (CFBE41o-F508delCFTR-HRP), doxycycline-inducible
Sequence (P13569 with tags, fused parts or gaps DEL508-508): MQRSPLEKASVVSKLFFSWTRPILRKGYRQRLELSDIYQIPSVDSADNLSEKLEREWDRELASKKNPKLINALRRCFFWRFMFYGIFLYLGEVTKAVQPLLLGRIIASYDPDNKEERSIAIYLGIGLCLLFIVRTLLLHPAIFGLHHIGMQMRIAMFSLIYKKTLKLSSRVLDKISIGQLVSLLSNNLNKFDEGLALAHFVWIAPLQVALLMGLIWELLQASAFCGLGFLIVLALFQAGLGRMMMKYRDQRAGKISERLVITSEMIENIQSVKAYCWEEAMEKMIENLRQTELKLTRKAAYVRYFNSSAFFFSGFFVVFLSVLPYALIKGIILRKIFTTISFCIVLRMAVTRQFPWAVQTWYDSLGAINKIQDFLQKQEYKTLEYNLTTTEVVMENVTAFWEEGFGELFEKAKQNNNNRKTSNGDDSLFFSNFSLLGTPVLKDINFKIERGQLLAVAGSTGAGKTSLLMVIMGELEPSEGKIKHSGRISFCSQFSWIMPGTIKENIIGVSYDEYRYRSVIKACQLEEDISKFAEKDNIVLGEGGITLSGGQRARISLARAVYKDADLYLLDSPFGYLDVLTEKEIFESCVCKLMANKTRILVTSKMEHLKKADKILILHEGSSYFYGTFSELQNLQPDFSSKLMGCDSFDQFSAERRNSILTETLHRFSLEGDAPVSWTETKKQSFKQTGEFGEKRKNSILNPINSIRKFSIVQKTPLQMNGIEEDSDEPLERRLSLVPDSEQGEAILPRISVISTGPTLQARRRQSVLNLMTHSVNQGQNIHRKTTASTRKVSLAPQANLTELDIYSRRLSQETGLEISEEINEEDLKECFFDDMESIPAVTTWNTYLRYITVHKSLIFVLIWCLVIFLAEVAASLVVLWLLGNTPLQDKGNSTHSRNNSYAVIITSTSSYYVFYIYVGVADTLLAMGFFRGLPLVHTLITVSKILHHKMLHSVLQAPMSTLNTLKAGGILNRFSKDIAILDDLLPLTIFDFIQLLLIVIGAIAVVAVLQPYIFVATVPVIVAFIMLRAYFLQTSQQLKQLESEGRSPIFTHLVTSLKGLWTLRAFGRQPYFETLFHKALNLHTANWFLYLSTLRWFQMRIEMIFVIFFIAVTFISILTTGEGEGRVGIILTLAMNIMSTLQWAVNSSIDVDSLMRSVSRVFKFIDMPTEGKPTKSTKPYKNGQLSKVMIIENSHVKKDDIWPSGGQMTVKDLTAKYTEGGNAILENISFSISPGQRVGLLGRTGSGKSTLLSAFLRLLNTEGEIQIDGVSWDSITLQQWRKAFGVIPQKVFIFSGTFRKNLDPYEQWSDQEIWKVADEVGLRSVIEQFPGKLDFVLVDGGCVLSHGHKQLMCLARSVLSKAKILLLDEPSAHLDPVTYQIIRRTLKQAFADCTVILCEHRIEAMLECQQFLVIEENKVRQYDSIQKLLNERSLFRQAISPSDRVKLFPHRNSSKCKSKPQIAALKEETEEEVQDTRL
Assay: Cell Surface Expression-Horse Radish Peroxidase (CSE-HRP) assay, test compound with co-corrector;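 note: percent of 2 µM positive control corrector over DMSO; co-corrector is that same compound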
Type: cell-based
Details: maximum at any tested concentration, normalized to on-plate positive control, with 2 μM co-corrector
value-type: Maximum % activity (with co-corrector)

Recorded Maximum % activity (with co-corrector), per entry:
> print(dat)
                                   compound                              value.type          test.value
1  CCC1(C(=O)NS(=O)(=O)c2ccc(-c3ccccc3)cc2)CCc2c(Cl)cccc21 (stereo not drawn)  Maximum % activity (with co-corrector)  ++ (≥150 and <350)
2  CCC1(C(=O)NS(=O)(=O)c2ccc(CN(C)C)cc2)CCc2c(Cl)cccc21 (stereo not drawn)  Maximum % activity (with co-corrector)            + (<150)
3  Nc1cccc(S(=O)(=O)NC(=O)C2CCCc3cccc(Cl)c32)n1 (stereo not drawn)  Maximum % activity (with co-corrector)            + (<150)
4  CCC1(C(=O)NS(=O)(=O)c2cccc(Cl)c2)CCc2c(Cl)cccc21 (stereo not drawn)  Maximum % activity (with co-corrector)  ++ (≥150 and <350)

Item CCC1(C(=O)NS(=O)(=O)c2ncccc2C(=O)N(C)C)CCc2c(Cl)cccc21 (stereo not drawn) ; assay system F508delCFTR (Homo sapiens, UniProt P13569, DEL508-508); Maximum % activity (with co-corrector) reported as + (<150)

Item CCOc1ccc(S(=O)(=O)NC(=O)C2CCc3c(Br)ccc(OC)c32)c2ccccc12 (stereo not drawn) ; assay system F508delCFTR (Homo sapiens, UniProt P13569, DEL508-508); Maximum % activity (with co-corrector) reported as ++ (≥150 and <350)

Item Cc1ccc2c(c1)CCC2(C)C(=O)NS(=O)(=O)c1cccc(N)n1 (stereo not drawn) ; assay system F508delCFTR (Homo sapiens, UniProt P13569, DEL508-508); Maximum % activity (with co-corrector) reported as ++ (≥150 and <350)

Item Cc1ccccc1S(=O)(=O)NC(=O)C1CCc2c(-c3cncc(F)c3)cccc21 (stereo not drawn) ; assay system F508delCFTR (Homo sapiens, UniProt P13569, DEL508-508); Maximum % activity (with co-corrector) reported as + (<150)

* * *

Biological target: F508delCFTR (Homo sapiens, UniProt P13569, DEL508-508)
Construct: expressed in transfected cells; host or cells: CFBE41o- human lung-derived epithelial cells (CFBE41o-F508delCFTR-HRP), doxycycline-inducible
Assay: Cell Surface Expression-Horse Radish Peroxidase (CSE-HRP) assay, test compound without co-corrector
Assay type: cell-based
Settings: CSE-HRP assay, test compound without co-corrector
value-type: EC50

The value of EC50 measured for the compound COCC1(C(=O)NS(=O)(=O)c2cccc3ccccc23)CCc2c(Cl)cccc21 (centres unmarked) [Example III-151] turned out to be ≥ 10 µM

The value of EC50 measured for the compound COc1ccc(N2CCOCC2)c2c1CCCC2C(=O)NS(=O)(=O)c1cccc2ccccc12 (centres unmarked) [III-153] turned out to be ≥ 10 µM

The value of EC50 measured for the compound Cc1ccccc1S(=O)(=O)NC(=O)C1CCc2c(-c3cn[nH]c3)cccc21 (centres unmarked) [III-97] turned out to be ≥ 10 µM

The value of EC50 measured for the compound CCC1(C(=O)NS(=O)(=O)c2cc(C)ccc2Cl)CCc2c(Cl)cccc21 (centres unmarked) [III-118] turned out to be ≥ 10 µM

The value of EC50 measured for the compound COc1ccc(Br)c2c1C(C(=O)NS(=O)(=O)c1cccn3cnnc13)CC2 (centres unmarked) [III-163] turned out to be ≥ 10 µM

The value of EC50 measured for the compound CCC1(C(=O)NS(=O)(=O)c2ccccc2OCCN2CCCCC2)CCc2c(Cl)cccc21 (centres unmarked) [III-138] turned out to be 3 to 10 µM

The value of EC50 measured for the compound Cc1ccccc1S(=O)(=O)NC(=O)C1CCc2c(-c3ccc(N4CCOCC4)nc3)cccc21 (centres unmarked) [III-100] turned out to be ≥ 10 µM

The value of EC50 measured for the compound COc1cccc2c1CCC[C@H]2C(=O)NS(=O)(=O)c1cccnc1N [III-107] turned out to be 3 to 10 µM

The value of EC50 measured for the compound CCC1(C(=O)N(C)S(=O)(=O)c2cccc3ccccc23)CCc2c(Cl)cccc21 (centres unmarked) [Example III-150] turned out to be ≥ 10 µM

The value of EC50 measured for the compound COc1ccc2c(n1)CCC2C(=O)NS(=O)(=O)c1cccc2ccccc12 (centres unmarked) [III-178] turned out to be 3 to 10 µM

The value of EC50 measured for the compound CCC1(C(=O)NS(=O)(=O)c2ccc3c(c2)OCCO3)CCc2c(Cl)cccc21 (centres unmarked) [III-123] turned out to be ≥ 10 µM

The value of EC50 measured for the compound Cc1ccc2c(c1)CCC2(C)C(=O)NS(=O)(=O)c1cccc(N)n1 (centres unmarked) [III-108] turned out to be 3 to 10 µM

The value of EC50 measured for the compound Cc1ccccc1S(=O)(=O)NC(=O)C1CCc2c(-c3cncc(F)c3)cccc21 (centres unmarked) [III-91] turned out to be ≥ 10 µM

The value of EC50 measured for the compound COc1ccc(CN2CCCC2)c2c1C(C(=O)NS(=O)(=O)c1cccc3ccccc13)CC2 (centres unmarked) [III-188] turned out to be ≥ 10 µM

The value of EC50 measured for the compound N#CCC1(C(=O)NS(=O)(=O)c2cccc3ccccc23)CCc2c(Cl)cccc21 (centres unmarked) [Example III-155] turned out to be 3 to 10 µM

The value of EC50 measured for the compound COc1ccc(-c2ccc(C)nc2)c2c1C(C(=O)NS(=O)(=O)c1cccc3ccccc13)CCC2 (centres unmarked) [III-167] turned out to be 3 to 10 µM

The value of EC50 measured for the compound O=C(NS(=O)(=O)c1cccc2ccccc12)C1(Cc2ccccn2)CCc2c(Cl)cccc21 (centres unmarked) [III-147] turned out to be 3 to 10 µM

The value of EC50 measured for the compound COc1ccc(CO)c2c1C(C(=O)NS(=O)(=O)c1cccc3ccccc13)CC2 (centres unmarked) [III-185] turned out to be 3 to 10 µM

The value of EC50 measured for the compound CCC1(C(=O)NS(=O)(=O)Cc2ccccc2)CCc2c(Cl)cccc21 (centres unmarked) [III-140] turned out to be ≥ 10 µM

The value of EC50 measured for the compound CCC1(C(=O)NS(=O)(=O)c2cnccc2N2CCN(C(C)C)CC2)CCc2c(Cl)cccc21 (centres unmarked) [III-137] turned out to be ≥ 10 µM

The value of EC50 measured for the compound Cc1ccccc1S(=O)(=O)NC(=O)C1CCc2c(-c3ccn[nH]3)cccc21 (centres unmarked) [III-98] turned out to be ≥ 10 µM

The value of EC50 measured for the compound CCC1(C(=O)NS(=O)(=O)c2c(C)nn(C)c2Cl)CCc2c(Cl)cccc21 (centres unmarked) [III-131] turned out to be ≥ 10 µM

The value of EC50 measured for the compound COc1ccc(-c2cncnc2)c2c1C(C(=O)NS(=O)(=O)c1cccc3ncccc13)CC2 (centres unmarked) [III-168] turned out to be 3 to 10 µM

The value of EC50 measured for the compound CCC1(C(=O)NS(=O)(=O)c2cccc(N3CCOCC3)c2C)CCc2c(Cl)cccc21 (centres unmarked) [III-172] turned out to be 3 to 10 µM

The value of EC50 measured for the compound CCC1(C(=O)NS(=O)(=O)c2ccccc2C(F)(F)F)CCc2c(Cl)cccc21 (centres unmarked) [III-122] turned out to be ≥ 10 µM

The value of EC50 measured for the compound Cc1cnccc1-c1cccc2c1CCC2C(=O)NS(=O)(=O)c1ccccc1C (centres unmarked) [III-95] turned out to be ≥ 10 µM

The value of EC50 measured for the compound Nc1cccc(S(=O)(=O)NC(=O)C2CCCc3cccc(Cl)c32)n1 (centres unmarked) [III-110] turned out to be ≥ 10 µM

The value of EC50 measured for the compound CCC1(C(=O)NS(=O)(=O)c2cccc(Cl)c2)CCc2c(Cl)cccc21 (centres unmarked) [III-117] turned out to be 3 to 10 µM

The value of EC50 measured for the compound CCC1(C(=O)NS(=O)(=O)c2ccc(-c3ccccc3)cc2)CCc2c(Cl)cccc21 (centres unmarked) [III-129] turned out to be ≥ 10 µM

The value of EC50 measured for the compound CCC1(C(=O)NS(=O)(=O)c2ccc(CN(C)C)cc2)CCc2c(Cl)cccc21 (centres unmarked) [III-130] turned out to be ≥ 10 µM

The value of EC50 measured for the compound Cc1ccccc1S(=O)(=O)NC(=O)C1CCc2c(-c3c[nH]nc3C)cccc21 (centres unmarked) [III-101] turned out to be ≥ 10 µM

The value of EC50 measured for the compound COc1ccc(Br)c2c1C(C(=O)NS(=O)(=O)c1cccc(N)n1)CC2 (centres unmarked) [III-160] turned out to be 3 to 10 µM

The value of EC50 measured for the compound COc1ccc(-c2cccc(OC(F)(F)F)c2)c2c1CCCC2C(=O)NS(=O)(=O)c1cccc2ccccc12 (centres unmarked) [III-148] turned out to be < 3 µM

The value of EC50 measured for the compound COc1ccc2c(c1OC)CC2C(=O)NS(=O)(=O)c1ccccc1C (centres unmarked) [III-175] turned out to be ≥ 10 µM

The value of EC50 measured for the compound CCC1(C(=O)NS(=O)(=O)c2ccc3ncccc3c2)CCc2c(Cl)cccc21 (centres unmarked) [III-133] turned out to be ≥ 10 µM

The reported numbers originate from patent US20180244611A1.
